This collection of values is drawn from patent US20260242735A1.

Exercise: for every item that follows, state its recorded Mean % WT Binding.
# target under test: human CD33 H193A (human, UniProt P20138 18-364)
# Sequence (P20138 18-364 H193A limits assumed): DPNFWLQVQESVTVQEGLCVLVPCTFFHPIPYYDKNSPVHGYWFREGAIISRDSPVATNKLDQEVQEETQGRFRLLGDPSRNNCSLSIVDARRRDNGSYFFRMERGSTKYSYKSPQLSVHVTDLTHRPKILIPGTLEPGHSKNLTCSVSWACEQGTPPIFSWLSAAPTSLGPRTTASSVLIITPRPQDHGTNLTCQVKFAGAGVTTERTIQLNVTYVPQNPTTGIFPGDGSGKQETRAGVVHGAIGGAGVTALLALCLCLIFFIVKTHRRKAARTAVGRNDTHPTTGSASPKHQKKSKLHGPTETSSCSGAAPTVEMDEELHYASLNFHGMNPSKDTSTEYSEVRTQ
# measurement protocol: alanine scan, flow cytometry, HEK293-T;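 note: antibody binding to each alanine-substituted CD33 mutant expressed transiently in HEK293-T, read as fluorescence minus background, mean of duplicates, relative to wild-type CD33 set as 100%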
The number alone won't do; follow it with the unit.

Recall and state the measured Mean % WT Binding for Refmab #1 (antibody, V domains shown, In the alanine scan antibodies were used as IgG or Fab; also called hP67.6) VH: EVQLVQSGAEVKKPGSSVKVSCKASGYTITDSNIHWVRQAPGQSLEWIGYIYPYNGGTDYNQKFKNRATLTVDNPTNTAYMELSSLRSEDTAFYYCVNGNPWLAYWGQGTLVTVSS VL: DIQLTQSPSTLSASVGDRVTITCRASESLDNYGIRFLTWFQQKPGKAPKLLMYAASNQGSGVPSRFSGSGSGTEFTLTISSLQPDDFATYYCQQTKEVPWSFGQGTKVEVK .
99.9%

Recall and state the measured Mean % WT Binding for Refmab #4 (antibody, V domains shown, In the alanine scan antibodies were used as IgG or Fab) VH: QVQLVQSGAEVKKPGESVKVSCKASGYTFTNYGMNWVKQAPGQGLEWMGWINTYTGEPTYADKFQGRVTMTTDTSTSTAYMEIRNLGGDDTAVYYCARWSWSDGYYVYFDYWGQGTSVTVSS VL: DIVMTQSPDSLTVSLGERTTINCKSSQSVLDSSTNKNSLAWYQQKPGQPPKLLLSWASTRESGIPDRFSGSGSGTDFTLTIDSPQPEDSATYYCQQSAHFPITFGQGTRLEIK .
103%

Recall and state the measured Mean % WT Binding for Refmab #3 (antibody, V domains shown, In the alanine scan antibodies were used as IgG or Fab) VH: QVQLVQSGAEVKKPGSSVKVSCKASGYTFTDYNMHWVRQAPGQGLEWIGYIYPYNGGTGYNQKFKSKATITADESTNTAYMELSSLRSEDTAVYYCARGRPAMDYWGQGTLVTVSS VL: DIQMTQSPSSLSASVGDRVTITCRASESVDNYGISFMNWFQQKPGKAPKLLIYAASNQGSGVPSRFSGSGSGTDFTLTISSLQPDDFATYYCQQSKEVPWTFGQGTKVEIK .
92%

Recall and state the measured Mean % WT Binding for Refmab #2 (antibody, V domains shown, In the alanine scan antibodies were used as IgG or Fab) VH: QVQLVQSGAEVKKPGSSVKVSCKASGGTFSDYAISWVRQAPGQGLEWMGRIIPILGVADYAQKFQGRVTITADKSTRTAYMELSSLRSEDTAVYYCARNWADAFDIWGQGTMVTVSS VL: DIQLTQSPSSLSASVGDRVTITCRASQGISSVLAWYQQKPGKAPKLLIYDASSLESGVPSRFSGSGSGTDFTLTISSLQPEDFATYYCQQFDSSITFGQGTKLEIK .
122%
